testedSystem: UniProtKB P04150
Sequence (P04150 1-777): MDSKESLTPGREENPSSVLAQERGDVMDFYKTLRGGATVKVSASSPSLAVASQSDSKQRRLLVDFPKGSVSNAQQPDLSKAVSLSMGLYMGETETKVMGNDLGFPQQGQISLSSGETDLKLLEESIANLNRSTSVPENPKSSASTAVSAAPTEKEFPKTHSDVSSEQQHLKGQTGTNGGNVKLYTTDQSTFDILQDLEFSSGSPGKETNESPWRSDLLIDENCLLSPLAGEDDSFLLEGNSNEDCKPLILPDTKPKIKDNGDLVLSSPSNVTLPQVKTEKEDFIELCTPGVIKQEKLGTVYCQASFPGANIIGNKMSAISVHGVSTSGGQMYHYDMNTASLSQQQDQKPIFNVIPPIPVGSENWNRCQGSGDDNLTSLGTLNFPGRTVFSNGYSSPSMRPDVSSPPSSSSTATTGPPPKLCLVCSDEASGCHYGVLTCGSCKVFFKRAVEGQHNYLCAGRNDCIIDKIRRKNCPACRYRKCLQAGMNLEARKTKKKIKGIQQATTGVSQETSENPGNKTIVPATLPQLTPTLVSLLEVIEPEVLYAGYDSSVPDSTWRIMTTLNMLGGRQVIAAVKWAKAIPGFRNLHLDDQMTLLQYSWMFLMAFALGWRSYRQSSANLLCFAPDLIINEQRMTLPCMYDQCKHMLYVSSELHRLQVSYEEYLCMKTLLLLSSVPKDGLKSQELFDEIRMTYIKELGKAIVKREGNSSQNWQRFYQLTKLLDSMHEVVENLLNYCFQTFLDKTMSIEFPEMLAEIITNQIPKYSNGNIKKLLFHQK
pKi: −log10 of the molar value.
valueKind: pKi

Oc1cc(C=C2c3ccccc3CCc3ccccc32)ccc1Cl [Example 157]: > 6.00

Looking up COc1cc(C=C2c3ccccc3CCc3ccccc32)ccc1F [Example 148] , I found its pKi recorded as > 6.00

# pKi (compound: Cc1cccc2c1C(=Cc1ccc(NS(C)(=O)=O)cc1)c1ccccc1CC2 [Example 310] ) is > 6.00

Reported pKi ( CS(=O)(=O)Nc1cccc(/C=C2\c3ccccc3COc3cc(F)ccc32)c1 [Example 630] ) = > 6.30

// O=c1[nH]c2cc(/C=C3\c4ccc(F)cc4CCc4ncccc43)ccc2n1C1CC1 [Example 593] : pKi value = > 5.00

Value of measured pKi for the entry Oc1cccc(/C=C2/c3ccccc3CCc3c(O)cccc32)c1 [Example 377] : > 5.00

Value of pKi reported for the compound Oc1cccc(/C=C2/c3ccccc3COc3cc(F)ccc32)c1 [Example 627] is > 6.30

Per the records, this compound ( O=Cc1ccccc1C=C1c2ccccc2CCc2ccccc21 [Example 69] ) has pKi equal to > 6.30

Looking up CS(=O)(=O)Nc1cccc(/C=C2\c3ccc(F)cc3CCc3ncsc32)c1 [Example 564] , I see its pKi listed as > 6.30

// sample Cc1ccc2c(c1)SCc1ccccc1/C2=C/c1cccc(NS(C)(=O)=O)c1 [Example 748] , its pKi was > 6.30

Reported pKi ( O=c1[nH]c2ccc(/C=C3\c4ccccc4COc4c(F)cccc43)cc2[nH]1 [Example 642] ) = > 6.00

pKi reading for Fc1ccc2c(c1)CCc1ncccc1/C2=C/c1ccc(C(F)F)cc1 [Example 543] : > 5.00

Record summary for O=c1[nH]c2cc(C=C3c4ccccc4[C@H]4C[C@H]4c4ccccc43)ccc2o1 [Example 606] : reported pKi = > 6.30

Recorded pKi (compound C(=C1c2ccccc2CCc2ccccc21)c1ccccc1-c1ccccn1 [Example 227] ): > 6.00

Memo: N#CNc1cccc(C=C2c3ccccc3CCc3ccccc32)c1 [Example 280] , reported pKi: > 6.00

Measured pKi, CS(=O)(=O)Nc1cccc(/C=C2/c3ccc(F)cc3CCc3ncsc32)c1 [Example 563] : > 6.30

Reported pKi for Oc1cccc(/C=C2\c3ccccc3CCc3cccc(Cl)c32)c1 [Example 370] was > 6.00

GET /value?item= CC(C)n1c(=O)[nH]c2cc(/C=C3\c4ccc(F)cc4CCc4ncccc43)ccc21 [Example 592] &field=pKi returns > 5.00

These entries and their values trace back to patent US20060063759A1.
